System: SETVI
assay-summary: Post-emergence herbicidal action against SETVI
Format: in vivo, Setaria viridis
condition: dosage 20 g/ha
Provide the reported Post-emergence action against SETVI in % of each item.
Param answer (str): number followed by unit.

Field: Post-emergence action against SETVI in %. Fill in for each record below.
1. CCc1c(C(=O)Nc2nnc(C)o2)ccc(C(F)(F)F)c1C(=O)NC1CC1 [Example 6-212]
2. CCNC(=O)c1c(C(F)(F)F)ccc(C(=O)Nc2nnco2)c1Cl [Example 5-117]
3. CCCn1nnnc1NC(=O)c1ccc(C(F)(F)F)c(C(=O)NC2CC2)c1CC [Example 3-273]
4. CCn1nnnc1NC(=O)c1ccc(C(F)(F)F)c(C(=O)NC)c1C1CC1 [Example 2-286]
5. Cn1nnnc1NC(=O)c1ccc(Br)c(C(=O)NCC(F)F)c1Cl [Example 1-182]
6. CCn1nnnc1NC(=O)c1ccc(Br)c(C(=O)NCC(F)F)c1Cl [Example 2-182]
7. Cc1nnc(NC(=O)c2ccc(C(F)(F)F)c(C(=O)NCC3CC3)c2Br)o1 [Example 6-161]

Result:
["80%", "100%", "80%", "80%", "100%", "100%", "90%"]
